- measured on: 3R Shaker K channel (Drosophila melanogaster, UniProt P08510, A359R/DEL6-46/M356R)
- Construct: gene Sh
- Sequence (P08510 with tags, fused parts or gaps DEL6-46/M356R/A359R): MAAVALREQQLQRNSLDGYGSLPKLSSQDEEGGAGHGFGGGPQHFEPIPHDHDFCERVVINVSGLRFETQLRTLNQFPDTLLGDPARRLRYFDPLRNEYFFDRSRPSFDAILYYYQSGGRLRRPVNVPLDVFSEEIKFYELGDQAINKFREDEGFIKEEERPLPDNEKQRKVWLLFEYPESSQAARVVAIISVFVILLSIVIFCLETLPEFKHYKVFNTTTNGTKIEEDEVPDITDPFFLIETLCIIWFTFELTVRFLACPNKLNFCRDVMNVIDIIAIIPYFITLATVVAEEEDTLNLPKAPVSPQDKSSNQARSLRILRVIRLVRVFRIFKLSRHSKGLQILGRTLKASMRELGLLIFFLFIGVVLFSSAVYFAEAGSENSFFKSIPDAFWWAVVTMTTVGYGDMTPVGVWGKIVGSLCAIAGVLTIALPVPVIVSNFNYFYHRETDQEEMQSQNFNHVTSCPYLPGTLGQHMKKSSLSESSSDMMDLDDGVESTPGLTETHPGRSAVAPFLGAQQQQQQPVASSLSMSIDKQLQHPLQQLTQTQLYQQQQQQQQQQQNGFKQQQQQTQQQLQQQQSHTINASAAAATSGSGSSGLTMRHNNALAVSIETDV
- assay protocol: two-electrode voltage clamp in Xenopus oocytes, G(V) shift; also patch clamp in CHO-K1 cells
- Type: cell-based
metric name: EC50 (µM)
The reply should contain only the number, in µM.

> print(dat)
                                 cpd.smiles  unit.symbol  readout.value
1  CON=C1C[C@H]2[C@](C)(C(=O)O)CCC[C@]2(C)c2cc(Br)c(C(C)C)cc21           µM             37

From here, focus on the item given below.
Item: `C[C@@]1(C(=O)O)CCC[C@]2(C)c3cc(Cl)c(Cl)c(Cl)c3CC[C@@H]12` | EC50: 37
